Each entry below carries its reported pKd.
MEASURED_ON: T1, hNav1.7-loopA3-llama Fc fusion (human)
T1 construct: also called hNav1.7-loopA3-llFc; loopA3-llamaFc chimera
T1 chain: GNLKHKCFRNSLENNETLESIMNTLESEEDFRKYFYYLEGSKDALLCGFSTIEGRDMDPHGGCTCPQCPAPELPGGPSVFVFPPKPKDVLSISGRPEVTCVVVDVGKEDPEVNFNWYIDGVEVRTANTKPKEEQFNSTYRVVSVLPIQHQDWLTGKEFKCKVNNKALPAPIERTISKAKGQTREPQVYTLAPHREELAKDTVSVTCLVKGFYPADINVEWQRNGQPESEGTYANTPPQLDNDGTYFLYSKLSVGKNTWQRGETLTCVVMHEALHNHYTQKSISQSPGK
EXPERIMENT_SUMMARY: Biacore SPR, antigen on CM5 chip, mAb in flow
pKd: −log10 of the molar value.
MEASUREMENT_KIND: pKd

binder="2D11 (antibody, human IgG1, V domains shown) VH: EVQLQESGPGLVKPSQTLSLTCTVSGGSITNSYYASSWIRQPPGKGLEWMGVIIYDGSTYYSPSLKSRTSISRDTSKNQFSLQLSSVTPEDTAVYYCARGLRVAGSYFTDFGTWGQGTQVTVSS VL: SYELTQSPSVSVALRQAAKITCGGDNIASKHAHWYQQKPGQSPVLVIYKDSNRPSGIPERFSGSNSGNTATLTVSGAQAEDEADYYCQVWDSSANAAVFGGGTHLTVLG" result=10.43
binder="3F11 (antibody, human IgG1, V domains shown) VH: QVQLVESGGGLVQPGGSLRLSCAASGFTFSSYWMYWVRQAPGKGLEWVSAINTGGGSTYYADSVKGRFTISRDNAKNTLYLQMNSLKPEDTALYYCARGPGYSGSYIEGWAYWGQGTQVTVSS VL: DIVMTQSPTSVTASVGEKVTINCKSSQSVVSGSNQKSYLNWYQQRPGQSPRLLIYHASTQESGIPDRFSGSGSTTDFTLTISSVQPEDAAVYYCQQAYNNPYSFGSGTRLEIK" result=10.60
